- Condition Parameters: in gamma-valerolactone, 318.15 K
Measurement Kind: solubility (mole fraction)
Just the number.

Problem: Please report solubility (mole fraction) for the following compound: CC(CO)(CO)C(=O)O
Result: 0.0124

----------
- Condition Parameters: in gamma-butyrolactone, 313.15 K
Measurement Kind: solubility (mole fraction)
Just the number.

Problem: Please report solubility (mole fraction) for the following molecule: CC(CO)(CO)C(=O)O
Result: 0.012

----------
- Condition Parameters: in MIBK, 308.15 K
Measurement Kind: solubility (mole fraction)
Just the number.

Problem: Please report solubility (mole fraction) for the following molecule: CC(CO)(CO)C(=O)O
Result: 0.0172

----------
- Condition Parameters: in 1,4-dioxane, 343.15 K
Measurement Kind: solubility (mole fraction)
Just the number.

Problem: Please report solubility (mole fraction) for the following compound: CC(CO)(CO)C(=O)O
Result: 0.041

----------
- Condition Parameters: in gamma-butyrolactone, 308.15 K
Measurement Kind: solubility (mole fraction)

Problem: Please report solubility (mole fraction) for the following compound: CC(CO)(CO)C(=O)O
Result: 0.00942

----------
- Condition Parameters: in gamma-valerolactone, 338.15 K
Measurement Kind: solubility (mole fraction)
Just the number.

Problem: Please report solubility (mole fraction) for the following compound: CC(CO)(CO)C(=O)O
Result: 0.0251

----------
- Condition Parameters: in 1,4-dioxane, 323.15 K
Measurement Kind: solubility (mole fraction)
Just the number.

Problem: Please report solubility (mole fraction) for the following molecule: CC(CO)(CO)C(=O)O
Result: 0.0219

----------
- Condition Parameters: in gamma-valerolactone, 328.15 K
Measurement Kind: solubility (mole fraction)

Problem: Please report solubility (mole fraction) for the following molecule: CC(CO)(CO)C(=O)O
Result: 0.0183

Data provenance: BigSolDB 2.1
